experiment: qHTS for differential inhibitors of proliferation of Plasmodium falciparum line 7G8 (AID 1815); conditions: Plasmodium falciparum 7G8 proliferation inhibition; series mostly up to 28.7 µM;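 note: parasite growth measured after three days of incubation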
Inconclusive results are not listed. Active and inactive are the calls of the source. Calls come from the whole dose curve; as a rule, active = well fitted curve in the direction sought with a large enough effect; inconclusive = small, poorly fitted or top-dose-only effect, or another doubt; inactive = no such curve, though single readings can be large or run the other way.
Outcome codes: active, inactive

{"compound": "CC(C)Cc1ccc([C@H](C)C(=O)O)cc1", "class": "inactive"}
{"compound": "Brc1c(Br)c(Br)c2n[nH]nc2c1Br", "class": "inactive"}
{"compound": "CC12C(=O)OC(=O)C1(C)C1CCC2O1 (configuration not stated)", "class": "active"}
{"compound": "O=c1[nH]c2ccccc2n1CCCN1CCN(C(c2ccccc2)c2ccccc2)CC1", "class": "active"}
{"compound": "COc1ccc(NC(=O)/C=C/c2ccc(Cl)cc2)cc1", "class": "active"}
{"compound": "CN[C@H](CC(C)C)C(=O)N[C@H]1C(=O)N[C@@H](CC(N)=O)C(=O)N[C@H]2C(=O)N[C@H]3C(=O)N[C@H](C(=O)N[C@H](C(=O)O)c4cc(O)cc(O)c4-c4cc3ccc4O)[C@H](O)c3ccc(c(Cl)c3)Oc3cc2cc(c3O[C@@H]2O[C@H](CO)[C@@H](O)[C@H](O)[C@H]2O[C@H]2C[C@](C)(N)[C@H](O)[C@H](C)O2)Oc2ccc(cc2Cl)[C@H]1O", "class": "inactive"}
{"compound": "NC(=O)C(=O)O", "class": "inactive"}
